Test system: HCT-116 colon
Experiment: NCI tumour cell line growth inhibition, 48 h
reported property: GI50

[[record]]
compound_smiles = "COc1ccc2c(ccc3oc([N+](=O)[O-])cc32)c1"
system_name = "HCT-116 colon"
data_value = "48.7 nM"

[[record]]
compound_smiles = "CN1CCC(n2cnc(-c3ccc(F)cc3)c2-c2ccnc(Nc3ccccc3)n2)CC1"
system_name = "HCT-116 colon"
data_value = "7270 nM"

[[record]]
compound_smiles = "N#Cc1cc2c(=S)[nH]c(=S)[nH]c2nc1SCc1ccccc1"
system_name = "HCT-116 colon"
data_value = "29800 nM"

[[record]]
compound_smiles = "CN1CCN(c2ccc(NC(=O)c3cncnc3Nc3ccc4c(ccn4Cc4cccc(F)c4)c3)cc2)CC1"
system_name = "HCT-116 colon"
data_value = "1000 nM"

[[record]]
compound_smiles = "CCCCc1n(Cc2ccc3ccccc3n2)cc[n+]1Cc1ccc2ccccc2c1"
system_name = "HCT-116 colon"
data_value = "639 nM"


* * *

Tested on: MDA-MB-231 breast
Test: NCI tumour cell line growth inhibition, 48 h; in the data active = GI50 below about 0.43 µM; inactive = the rest
Labels: yes for active, no for inactive

[[record]]
molecule = "CCCCc1n(Cc2ccc3ccccc3n2)cc[n+]1Cc1ccc2ccccc2c1"
cat = "no"

[[record]]
molecule = "O=C1Nc2cc(-c3ccc(O)cc3)ccc2/C1=C/c1ccc[nH]1"
cat = "yes"

[[record]]
molecule = "COC(=O)[C@]12CC[C@@H](C)[C@H](C)[C@@H]1C1=CC[C@@H]3[C@@]4(C)C(C=O)=C[C@@](C)(COC(=O)c5ccco5)C4=CC[C@@]3(C)[C@]1(C)CC2"
cat = "no"

[[record]]
molecule = "COc1ncc(-c2ccc3ncnc(Nc4cccc(Cl)c4)c3c2)cc1NS(C)(=O)=O"
cat = "no"

[[record]]
molecule = "Cc1nc2sc(C(=O)Nc3cccc(Cl)c3C)c(N)c2cc1C(O)c1ccccc1 (configuration not stated)"
cat = "yes"

[[record]]
molecule = "CCN1Cc2c(/C=C/c3ccccc3)nc3ccc(OC)cc3c2N(c2cccc(Cl)c2)C1"
cat = "no"

[[record]]
molecule = "Cc1ccc(Nn2c(SCC(=O)Nc3nc(-c4ccccc4)cs3)nc(C)c2C)cc1"
cat = "no"

[[record]]
molecule = "COc1ccc(-n2nc(C(=O)c3ccccc3)c3nn4c(=O)cc(-c5ccccc5)nc4nc32)cc1"
cat = "no"

[[record]]
molecule = "NCCNc1nc2ccc(F)cc2c2c(=O)c3cc(F)ccc3sc12"
cat = "no"

[[record]]
molecule = "COc1ccc(-n2nc(C(=O)NCC(=O)Nc3nc4cc(OC)ccc4s3)c3ccccc3c2=O)cc1"
cat = "no"

[[record]]
molecule = "COc1ccc(/C=N/C2=NNC(C)(c3ccccc3O)N2C(Cc2c[nH]c3ccccc23)C(=O)O)cc1 (configuration not stated)"
cat = "no"

[[record]]
molecule = "Cc1cc(O)cc(-c2nn(C)cc2-c2cc(N3CCOCC3)nc(-c3cccnc3)n2)c1"
cat = "no"

[[record]]
molecule = "NC1=CC(=O)C(=O)c2ccccc21"
cat = "no"

[[record]]
molecule = "O=C(/C=C/c1cc(O)ccc1O)c1ccc(Cl)cc1"
cat = "no"

[[record]]
molecule = "COC(=O)C(Br)(C(=O)OC)C(Br)C(Br)C(Br)c1ccccc1 (configuration not stated)"
cat = "no"

[[record]]
molecule = "CCC1C[N+]2=C(c3cc(OC)c(OC)cc3CC2)c2c1cc1n2CCc2cc(OC)c(OC)cc2-1 (configuration not stated)"
cat = "no"

[[record]]
molecule = "CC12OC(C(=O)C13CCC3)C1C(=O)c3c(O)ccc(O)c3C(=O)C12 (configuration not stated)"
cat = "no"


* * *

Tested on: T-47D breast
Test: NCI tumour cell line growth inhibition, 48 h
reported property: GI50

[[record]]
compound = "O=CCC(O)C(O)C(O)CO (stereo not given)"
reported_property = "GI50"
data_value = "> 100 µM"

[[record]]
compound = "COc1ccc(OC)c(-c2nc3sc(C)cn3c2/C=C2\\C(=O)N(C)c3ccccc32)c1"
reported_property = "GI50"
data_value = "30.8 µM"

[[record]]
compound = "COC(=O)[C@]12CC[C@@H](C)[C@H](C)[C@@H]1C1=CC[C@@H]3[C@@]4(C)C(C=O)=C[C@@](C)(COC(=O)c5ccco5)C4=CC[C@@]3(C)[C@]1(C)CC2"
reported_property = "GI50"
data_value = "2.68 µM"

[[record]]
compound = "COC(=O)C[C@@H]1CC=CC(=O)/C1=C(O)/C=C/c1ccccc1"
reported_property = "GI50"
data_value = "0.549 µM"

[[record]]
compound = "COc1ccccc1N1CCN(CC(O)Cn2c(=O)c3c(OC)nc(C)cc3c(=O)n2-c2ccccc2)CC1 (stereo not given)"
reported_property = "GI50"
data_value = "> 100 µM"


* * *

Tested on: SR leukemia
Assay: NCI tumour cell line growth inhibition, 48 h
The following compounds are listed with their measured TGI values.
reported property: TGI

[[record]]
compound = "CCCCc1n(Cc2ccc3ccccc3n2)cc[n+]1Cc1ccc2ccccc2c1"
system_name = "SR leukemia"
data_value = "1.95 µM"

[[record]]
compound = "C#C[C@]1(O)[C@@H](CO)O[C@@H](n2ccc(=O)[nH]c2=O)[C@@H]1O"
system_name = "SR leukemia"
data_value = "> 100 µM"

[[record]]
compound = "COc1cc(CO)cc2c1[nH]c1ccccc12"
system_name = "SR leukemia"
data_value = "> 25 µM"

[[record]]
compound = "NC1=C(/C(N)=N/O)C(c2ccccc2)c2ccc3ccccc3c2O1 (stereo unspecified)"
system_name = "SR leukemia"
data_value = "> 100 µM"

[[record]]
compound = "CN1C(CC(O)c2ccccc2)CCCC1CC(O)(c1ccccc1)c1ccccc1 (stereo unspecified)"
system_name = "SR leukemia"
data_value = "56.6 µM"

[[record]]
compound = "Cc1ccc([N+](=O)[O-])cc1NC(=O)/C(CC(=O)c1sc(C(N)=S)nc1C)=N\\N"
system_name = "SR leukemia"
data_value = "> 100 µM"

[[record]]
compound = "O=C(CC(=O)c1cccc2ccccc12)C(=O)Nc1nccs1"
system_name = "SR leukemia"
data_value = "> 100 µM"

[[record]]
compound = "CCN(CC)CCC(CNc1c(C)cnc2cc(Cl)ccc12)c1ccc(Cl)c(Cl)c1 (stereo unspecified)"
system_name = "SR leukemia"
data_value = "5.44 µM"

[[record]]
compound = "COc1ccc(C(=O)c2cc(C)c(OC)c(C)c2)c(OC)c1OC(=O)C(Cl)Cl"
system_name = "SR leukemia"
data_value = "> 100 µM"

[[record]]
compound = "COc1cc([N+](=O)[O-])cc2c1NC(=O)C2(C)SC (stereo unspecified)"
system_name = "SR leukemia"
data_value = "> 100 µM"

[[record]]
compound = "Fc1cccc(-c2nc(-c3c[nH]c4ncccc34)cs2)c1"
system_name = "SR leukemia"
data_value = "> 100 µM"


* * *

Test system: SK-MEL-28 melanoma
Assay: NCI tumour cell line growth inhibition, 48 h
Parameter TGI: see the listing below.
reported property: TGI

[[record]]
compound = "CN(CCCN1CCCC1)CCCN(C)C(=O)Cc1ccc(Cl)c(Cl)c1"
data_value = "5.26 µM"

[[record]]
compound = "O=C1CCCc2cc3c(cc21)CC1(C3)Cc2cc3c(cc2C1)C(=O)CCC3"
data_value = "41.7 µM"

[[record]]
compound = "NC(CCSCCF)C(=O)O (stereo unspecified)"
data_value = "> 100 µM"

[[record]]
compound = "CC(CCCCNC(=O)OC(C)(C)C)NC(=O)NC(C)CCCCNC(=O)OC(C)(C)C (stereo unspecified)"
data_value = "> 100 µM"

[[record]]
compound = "COc1cc(CO)cc2c1[nH]c1ccccc12"
data_value = "> 25 µM"

[[record]]
compound = "O=C1CNc2cc(N3CCCCC3)ccc2N1"
data_value = "> 100 µM"


* * *

System: ACHN renal
Test: NCI tumour cell line growth inhibition, 48 h
reported property: TGI

[[record]]
compound = "CC(CCCCNC(=O)OC(C)(C)C)NC(=O)NC(C)CCCCNC(=O)OC(C)(C)C (stereo unspecified)"
data_value = "> 100 µM"

[[record]]
compound = "CN(CCN1C(=O)c2cccc3cccc(c23)C1=O)CCN1C(=O)c2cccc3cccc(c23)C1=O"
data_value = "20.7 µM"

[[record]]
compound = "COc1ccc(/C=N/C2=NNC(C)(c3ccccc3O)N2C(Cc2c[nH]c3ccccc23)C(=O)O)cc1 (stereo unspecified)"
data_value = "14.7 µM"

[[record]]
compound = "O=C(/C=C/c1ccco1)N1CCN(Cc2ccccc2)CC1"
data_value = "> 100 µM"

[[record]]
compound = "COC(=O)[C@]12CC[C@@H](C)[C@H](C)[C@@H]1C1=CC[C@@H]3[C@@]4(C)C(C=O)=C[C@@](C)(COC(=O)c5ccco5)C4=CC[C@@]3(C)[C@]1(C)CC2"
data_value = "2.56 µM"

[[record]]
compound = "C[C@@H]1C[C@@H]2C(=O)N(c3ccccc3)C(=O)[C@@H]2c2[nH]c3ccc(Br)cc3c21"
data_value = "> 100 µM"

[[record]]
compound = "CC1=C(c2ccccc2)CON(c2ccccc2)C1"
data_value = "> 100 µM"

[[record]]
compound = "Cc1cc(O)cc(-c2nn(C)cc2-c2cc(N3CCOCC3)nc(-c3cccnc3)n2)c1"
data_value = "41.2 µM"

[[record]]
compound = "O=C(Cn1c2c(c3ccccc31)CCCC2)N1CCOCC1"
data_value = "> 100 µM"

[[record]]
compound = "COc1ccc(/C=C\\c2cc(OC)c(OC)c(OC)c2)cc1N/C=C\\C(=O)c1c[nH]c2ccccc12"
data_value = "> 100 µM"

[[record]]
compound = "O=C1/C(=C\\c2cccc(Oc3ccccc3)c2)SC(c2ccccc2)N1Cc1ccccc1 (stereo unspecified)"
data_value = "> 100 µM"

[[record]]
compound = "O=S(=O)(N1CCCCN(S(=O)(=O)C(F)(F)F)CCCN(S(=O)(=O)C(F)(F)F)CCCCN(S(=O)(=O)C(F)(F)F)CCCN(S(=O)(=O)C(F)(F)F)CCCCN(S(=O)(=O)C(F)(F)F)CCCN(S(=O)(=O)C(F)(F)F)CCCCN(S(=O)(=O)C(F)(F)F)CCC1)C(F)(F)F"
data_value = "> 31.6 µM"

[[record]]
compound = "Cn1c(=S)c2[nH]c(SCc3cccnc3)nc2n(C)c1=O"
data_value = "> 100 µM"

[[record]]
compound = "COc1cc(/C=C/C(=O)N[C@@H]2C(=O)N3[C@@H]2SC(C)(C)[C@@H]3C(=O)O)ccc1O"
data_value = "> 100 µM"

[[record]]
compound = "Fc1c(F)c(F)c(CSc2nc3ccccc3[nH]2)c(F)c1F"
data_value = "> 100 µM"

[[record]]
compound = "COc1ccc(-c2cncn2-c2ccc(-c3nc4cc(OC)c(OC)c(OC)c4s3)cc2)cc1N"
data_value = "> 100 µM"

